Measured values drawn from ChEMBL document CHEMBL1125119 for this set.

Recorded pKi values for a group of molecules are listed next.
Assay system: serotonin transporter (Rattus norvegicus)
Assay procedure: Tested in vitro for serotonin(5-HT) neuronal uptake inhibition
Quick note: pKi values are minus log10 of concentrations in mol/L.

Qu. So what does the record say about pKi for CSc1ccc(C2CN3CCCC3c3c(C#N)cccc32)cc1.Cl (stereo unspecified) ?
Ans. 7.83

Qu. So what does the record say about pKi for C[S+]([O-])c1ccc(C2CN3CCCC3c3ccccc32)cc1 (stereo in doubt; 11b) ?
Ans. 6.22

Qu. So what does the record say about pKi for CSc1ccc(C2CN3CCC[C@@H]3c3c(Cl)cccc32)cc1.Cl (stereo partly specified) ?
Ans. 8.52

Qu. So what does the record say about pKi for CSc1ccc(C2CN3CCCC3c3ccc(Cl)cc32)cc1.Cl (stereo unspecified) ?
Ans. 8.07

Qu. So what does the record say about pKi for Br.CSc1ccc(C2CN3CCCC3c3c(C)cccc32)cc1 (stereo unspecified) ?
Ans. 8.62
